Source listed as patent US20260125382A1.

Biological target: CDK2 (Homo sapiens)
Construct: endogenous in cells; host or cells: MDA-MB-231
Experiment: CDK protein degradation activity (Western blotting), CDK2
Format: cell-based
Conditions: MDA-MB-231 cells, 1 μM, 16 hours, Western blot
experimental-endpoint: Enzyme degradation CDK2 (% remaining) @ 1 μM

Answered cases to consult:
{"compound": "O=C(Cc1cccc(NC2=CC(=O)N(C3CCC(=O)NC3=O)C2=O)c1)NC[C@H]1CC[C@H](CN2CCN(c3ccc(Nc4ncnc5c4ncn5[C@H]4C[C@@H](NC(=O)Cc5ccccc5)C4)cc3)CC2)CC1 (stereo partly shown) [Compound 200]", "experimental-system": "CDK2 (Homo sapiens)", "value-measured": "100/100/100%"}
{"compound": "O=C1CC[C@H](n2nnc3ccc(N4CCN(CC5CCN(c6ccc(Nc7ncnc8c7ncn8C7CC(NC(=O)c8c(Cl)cccc8Cl)C7)cc6)CC5)CC4)cc3c2=O)C(=O)N1 (stereo partly shown) [Compound 370]", "experimental-system": "CDK2 (Homo sapiens)", "value-measured": "0/0/0%"}
{"compound": "O=C1CC[C@H](N2C(=O)c3ccc(N4CCC(C(=O)N5CCC(CN6CCN(c7ccc(Nc8ncnc9c8ncn9C8CC(NC(=O)c9c(Cl)cccc9Cl)C8)cc7)CC6)CC5)CC4)cc3C2=O)C(=O)N1 (stereo partly shown) [Compound 395]", "experimental-system": "CDK2 (Homo sapiens)", "value-measured": "20/20/20%"}
{"compound": "O=C1CC[C@H](N2C(=O)c3cccc(NC[C@H]4CC[C@H](CN5CCN(c6ccc(Nc7ncnc8c7ncn8[C@H]7C[C@@H](NC(=O)Cc8ccccc8)C7)cc6)CC5)CC4)c3C2=O)C(=O)N1 [Compound 222]", "experimental-system": "CDK2 (Homo sapiens)", "value-measured": "100/100/100%"}
{"compound": "O=C1CC[C@H](N2C(=O)c3ccc(N4CCC5(CC4)CC(N4CCN(c6ccc(Nc7ncnc8c7ncn8[C@H]7C[C@@H](NC(=O)Cc8ccccc8)C7)cc6)CC4)C5)cc3C2=O)C(=O)N1 [Compound 210]", "experimental-system": "CDK2 (Homo sapiens)", "value-measured": "30/30/30%"}
{"compound": "O=C1CC[C@H](N2C(=O)c3cccc(NCC(=O)N4CCC(CN5CCN(c6ccc(Nc7ncnc8c7ncn8[C@H]7C[C@@H](NC(=O)c8cccc(C(F)(F)F)n8)C7)cc6)CC5)CC4)c3C2=O)C(=O)N1 [Compound 425]", "experimental-system": "CDK2 (Homo sapiens)", "value-measured": "0/0/0%"}
{"compound": "O=C1CC[C@H](N2C(=O)c3cc(F)c(N4CCC(CN5CCN(c6ccc(Nc7ncnc8c7ncn8C7CC(NC(=O)c8c(Cl)cccc8Cl)C7)cc6)CC5)CC4)cc3C2=O)C(=O)N1 (stereo partly shown) [Compound 299]", "experimental-system": "CDK2 (Homo sapiens)", "value-measured": "30/30/30%"}
{"compound": "O=C1CC[C@H](N2C(=O)c3cc(F)c(N4CCC(CN5CCN(c6ccc(Nc7ncnc8c7ncn8C7CC(NC(=O)c8cccc(C(F)(F)F)n8)C7)cc6)CC5)CC4)cc3C2=O)C(=O)N1 (stereo partly shown) [Compound 415]", "experimental-system": "CDK2 (Homo sapiens)", "value-measured": "20/20/20%"}

Q) Entry O=C1CC[C@H](N2C(=O)c3ccc(N4CC(C(=O)N5CCC(CCN6CCN(c7ccc(Nc8ncnc9c8ncn9C8CC(NC(=O)c9c(Cl)cccc9Cl)C8)cc7)CC6)CC5)C4)cc3C2=O)C(=O)N1 (stereo partly shown) [Compound 412] : reported Enzyme degradation CDK2 (% remaining) @ 1 μM = ?
A) 30/30/30%

Q) Could you share which Enzyme degradation CDK2 (% remaining) @ 1 μM value was measured for O=C1CC[C@H](N2C(=O)c3ccc(NCC(=O)N4CC(N5CCC6(CC5)CC(N5CCN(c7ccc(Nc8ncnc9c8ncn9C8CC(NC(=O)Cc9ccccc9)C8)cc7)CC5)C6)C4)cc3C2=O)C(=O)N1 (stereo partly shown) [Compound 278] ?
A) 50/50/50%
